// data source = patent US10662204B2

Target: GDP-loaded KRAS (1-169) G12C, C51S, C80L, C118S (Homo sapiens, UniProt P01116, C118S/C51S/C80L/G12C)
Construct: GDP-loaded KRAS (1-169) G12C, C51S, C80L, C118S
Test: Mass Spectrometry Reactivity Assay (MSRA): covalent adduct of compound and KRAS G12C, Percent Modification
Type: binding
Conditions: 10 μM compound, 0.25 hr
Quick reference: MSRA (% modification) 10 μM 0.25 hr of the listed items.

| compound | MSRA (% modification) 10 μM 0.25 hr |
| --- | --- |
| C=CC(=O)N1CCN(c2ncnc3c(Oc4c(Cl)c(F)cc5[nH]ncc45)nc(Cl)cc23)[C@H](C)C1 [Example 40A] | 6% |
| C=CC(=O)N1CCN(c2nc(OC[C@@H]3CCCN3C)nc3c(Oc4c(C)c(Cl)cc5[nH]ncc45)cccc23)CC1 [Example 22E] | 81% |
| C=CC(=O)N1CCN(c2nc(OC[C@@H]3C[C@H](F)CN3C)nc3c(Oc4c(Cl)c(F)cc5[nH]ncc45)nccc23)CC1 [Example 11H] | 80% |
| C=CC(=O)N1CCN(c2nc(O[C@H]3Cc4nccn4C3)nc3c(Oc4c(C)ccc5[nH]ncc45)cccc23)CC1 [Example 08F] | 58% |
| C=CC(=O)N1CCN(c2nc(OCc3cscn3)nc3c(Oc4c(C)ccc5[nH]ncc45)cccc23)CC1 [Example 23F] | 66% |
| C=CC(=O)N1CCN(c2nc(N3CC(N(C)C)C3)nc3c(Oc4c(Cl)c(F)cc5[nH]ncc45)nc(Cl)cc23)CC1 [Example 05G] | 81% |
| C=CC(=O)N1CCN(c2nc(NCCN3CCN(C)CC3)nc3c(Oc4c(C)ccc5[nH]ncc45)cccc23)CC1 [Example 19F] | 24% |
| C=CC(=O)N1CCN(c2nc(N3CC(N(C)C)C3)nc3c(Oc4c(Cl)c(C)cc5[nH]ncc45)nccc23)CC1 [Example 04E] | 60% |
| C=CC(=O)N1CCN(c2nc(OC[C@@H]3CC(F)(F)CN3C)nc3c(Oc4c(C)ccc5[nH]ncc45)nccc23)CC1 [Example 07B] | 15% |
| C=CC(=O)N1CCN(c2ncnc3c(Oc4c(Br)c(C)cc5[nH]ncc45)nccc23)CC1 [Example 13A] | 44% |
| C=CC(=O)N1CCN(c2nc(OC[C@@H]3C[C@H](OC)CN3C)nc3c(Oc4c(Cl)c(F)cc5[nH]ncc45)nccc23)CC1 [Example 12H] | 67% |
| C=CC(=O)N1CCN(c2nc(OCCN(C)C)nc3c(Oc4c(Cl)c(C)cc5[nH]ncc45)cc(Cl)cc23)CC1 [Example 13E] | 75% |
| C=CC(=O)N1CCN(c2ncnc3c(Oc4c(Cl)c(Cl)cc5[nH]ncc45)nccc23)CC1 [Example 29A] | 70% |

----------
Target: GDP-loaded KRAS (1-169) G12C, C51S, C80L, C118S (Homo sapiens, UniProt P01116, C118S/C51S/C80L/G12C)
Construct: GDP-loaded KRAS (1-169) G12C, C51S, C80L, C118S
Assay: Mass Spectrometry Reactivity Assay (MSRA): covalent adduct of compound and KRAS G12C, Percent Modification
Format: binding
Conditions: 5.0 μM compound, 0.017 hr

| compound | MSRA (% modification) 5.0 μM 0.017 hr, % |
| --- | --- |
| C=CC(=O)N1CCN(c2nc(O[C@@H]3CN(CC)C[C@H]3OC)nc3c(Oc4c(Cl)c(F)cc5[nH]ncc45)nccc23)CC1 [Example 17H] | 69 |
| C=CC(=O)N1CCN(c2nc(OC[C@]3(F)CCCN(C)C3)nc3c(Oc4c(Cl)c(F)cc5[nH]ncc45)nc(Cl)cc23)CC1 [Example 25G] | 73 |
| C=CC(=O)N1CCN(c2nc(OC3CN(C)CC34CC4)nc3c(Oc4c(Cl)c(F)cc5[nH]ncc45)nccc23)CC1 (stereo not drawn) [Example 26I] | 17 |
